- testedOn: human Plasma Kallikrein (Homo sapiens (Human))
- Sequence (P03952 391-638 limits assumed): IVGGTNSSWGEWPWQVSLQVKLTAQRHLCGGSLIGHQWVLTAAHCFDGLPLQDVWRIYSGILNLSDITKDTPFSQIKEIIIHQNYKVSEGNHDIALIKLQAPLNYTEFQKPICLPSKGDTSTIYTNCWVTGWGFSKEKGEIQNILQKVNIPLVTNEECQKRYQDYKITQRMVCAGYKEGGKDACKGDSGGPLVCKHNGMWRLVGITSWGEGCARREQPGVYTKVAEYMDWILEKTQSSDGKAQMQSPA
- Sequence (P03952 20-390 partner limits assumed): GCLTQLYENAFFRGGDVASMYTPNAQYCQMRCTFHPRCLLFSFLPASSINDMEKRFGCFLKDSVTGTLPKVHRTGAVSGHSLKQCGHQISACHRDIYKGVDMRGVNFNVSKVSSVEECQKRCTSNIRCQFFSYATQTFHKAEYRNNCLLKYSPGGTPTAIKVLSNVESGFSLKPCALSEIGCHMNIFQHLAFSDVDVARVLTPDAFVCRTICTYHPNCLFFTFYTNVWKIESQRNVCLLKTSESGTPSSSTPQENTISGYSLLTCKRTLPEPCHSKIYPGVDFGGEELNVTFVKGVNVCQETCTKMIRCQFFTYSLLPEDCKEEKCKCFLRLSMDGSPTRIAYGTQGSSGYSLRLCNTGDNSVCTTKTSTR
- experimentSummary: In vitro enzyme inhibition of human plasma kallikrein (Pro-Phe-Arg-AMC cleavage)
- testSettings: PFR-AMC substrate, 37° C., read-out: hPK IC50
recordedMetric: IC50

{"compound": "O=C(NCc1n[nH]c2ccc(Cl)cc12)c1cncc(Cc2ccccc2C(F)(F)F)c1 [Example 1]", "recordedMetric": "IC50", "reportedValue": "1000 to 10000 nM"}
{"compound": "NC(=O)c1ccccc1Cc1cncc(C(=O)NCc2n[nH]c3ccc(Cl)cc23)c1 [Example 6]", "recordedMetric": "IC50", "reportedValue": "1000 to 10000 nM"}
{"compound": "O=C(NC(C(=O)O)c1n[nH]c2ccc(Cl)cc12)c1cncc(Cc2ccc(Cn3ccccc3=O)cc2)c1 (centres unmarked) [Example 12]", "recordedMetric": "IC50", "reportedValue": "1000 to 10000 nM"}
{"compound": "O=C(NCc1ccc(Br)c(F)c1)c1ccnc(Cc2ccc(Cn3ccccc3=O)cc2)c1 [Example 18]", "recordedMetric": "IC50", "reportedValue": "> 10000 nM"}
{"compound": "N#Cc1ccc(Cc2cncc(C(=O)NCc3n[nH]c4ccc(Cl)cc34)c2)cc1 [Example 2]", "recordedMetric": "IC50", "reportedValue": "1000 to 10000 nM"}
{"compound": "Cc1cc(N)nc(C)c1CNC(=O)c1cncc(Cc2ccc3ncc(Cl)cc3c2)c1 [Example 22]", "recordedMetric": "IC50", "reportedValue": "≤ 100 nM"}
{"compound": "N#Cc1cnn(Cc2cncc(C(=O)NCc3cc4c(Cl)c[nH]c4cc3F)c2)c1 [Example 7]", "recordedMetric": "IC50", "reportedValue": "1000 to 10000 nM"}
{"compound": "Cc1cc(N)nc(C)c1CNC(=O)c1ccc(=O)n(Cc2ccc3ncc(Cl)cc3c2)c1 [Example 21]", "recordedMetric": "IC50", "reportedValue": "≤ 100 nM"}
{"compound": "CS(=O)(=O)c1cc(Cc2cc(C(=O)NCc3cnc4[nH]cc(Cl)c4c3)ccn2)ccc1Cn1ccccc1=O [Example 29]", "recordedMetric": "IC50", "reportedValue": "≤ 100 nM"}
{"compound": "Cc1nc(N)ccc1CNC(=O)c1ccnc(Cc2ccc(Cn3ccccc3=O)c(S(C)(=O)=O)c2)c1 [Example 23]", "recordedMetric": "IC50", "reportedValue": "≤ 100 nM"}
{"compound": "CS(=O)(=O)c1cc(Cc2cc(C(=O)NCc3ccc4c(N)noc4c3)ccn2)ccc1Cn1ccccc1=O [Example 20]", "recordedMetric": "IC50", "reportedValue": "100 to 1000 nM"}
